Hello, the source for this data is the supplement of paper PMC9112550, in case you need it.

Test system: Escherichia coli TOP10;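 also: peptides expressed intracellularly from a pBAD plasmid library in pooled LB shake-flask culture, induced with 0.3% L-arabinose, DNA abundance read by NGS, three biological replicates, DESeq2 with apeglm shrinkage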
Assay: shrunken log2 fold change of peptide-encoding DNA abundance (4.5 h post-induction vs induction); higher = less antimicrobial activity (less host growth inhibition)
Conditions: time post-induction: 4.5 h; library: site-saturation at positions 5, 18, 19, 20
Measured shrunken log2 fold change of individual entries
Provide a numeric answer; units are not to be included.

shrunken log2 fold change reported for this sequence `RRIRWRPPRLPRPRPRPKQEPRP` : 0.0489

Entry `RRIRDRPPRLPRPRPRPQAFPRP` — recorded shrunken log2 fold change = -0.184

Entry under test: `RRIRPRPPRLPRPRPRPQNHPRP` . Its shrunken log2 fold change was 0.181

Input `RRIRNRPPRLPRPRPRPAAPPRP` . Output shrunken log2 fold change: 0.331

Record `RRIRARPPRLPRPRPRPCIIPRP` , field shrunken log2 fold change: -0.076
